Record form. Attribute: growth. Fill in for each entry.
- Test system: SNB-19 CNS
- experimental-details: NCI-60 one-dose screen, 48 h (100 = growth as untreated, 0 = no growth, -100 = all killed)
- condition-context: 10 µM unless noted
About 83,000 compounds went through this panel and 20% of them were active in at least one assay; those are over-represented in the sample as a whole. The source made the active and inactive calls. The calls were made as follows: active = growth percent below 10; inactive = the rest.

A selection of reference data follows.
Cc1nc2c(nnn2-c2ccccc2)c2nc(-c3ccccc3)oc(=O)c12 :: 104% (inactive)
COC(=O)c1ccc2[nH]c(O)c(C(=Nc3ccc(N(C)C(=O)CN4CCN(C)CC4)cc3)c3ccc(CCO)cc3)c2c1 :: 31.4% (inactive)
COc1ccc(Nc2c3ccccc3nc3ccccc23)cc1 :: 53.2% (inactive)
CC[C@H](Nc1ncnc2nc[nH]c12)c1nc2cccc(NCc3ccc(C(=O)NO)o3)c2c(=O)n1-c1ccccc1 :: 99.7% (inactive)
[N-]=[N+]=Nc1ncc(-c2ccc(C(F)(F)F)cc2)c(NC2CCCCCC2)n1 :: 40.9% [100 µM] (inactive)

// batch mode: one growth value per listed entry
1. COc1ccc(-c2nc(Nc3nc4ccccc4[nH]3)nc(N)c2C#N)cc1
2. COc1ccc(C(=O)NCCNc2nccc(-c3c(-c4ccc(F)cc4)nc4sccn34)n2)cc1
3. COc1ccc(CN2C(=O)/C(=C\C(=O)c3ccc(OCCN4CCCC4)cc3)c3ccccc32)cc1

Solution:
1. 98.1% (inactive)
2. 61.9% (inactive)
3. 97.1% (inactive)

Lab note: each molecule below needs its growth filled in.
1. COc1ccc(Cn2cc3c(c2-c2ccccc2)CCc2cnoc2-3)cc1N
2. O=C(NC1CCN(Cc2ccccc2)CC1)c1cc(-c2cccnc2)nc2ccc(Cl)cc12
3. Clc1ccc(N/N=C(\c2ccccc2)c2ccccn2)nc1

Solution:
1. 44.5% (inactive)
2. 91.4% (inactive)
3. 24.4% (inactive)
